These entries and their values trace back to PubChem BioAssay (NCI).

As shown below, each of these molecules has a reported growth value.
System: U251 CNS
ASSAY NOTES: NCI-60 one-dose screen, 48 h (100 = growth as untreated, 0 = no growth, -100 = all killed)
TEST SETTINGS: 10 µM unless noted
Compounds without any hit were thinned out: in the full panel of roughly 83,000, 20% have a hit.
MEASUREMENT LABEL: growth (%)

* CCOC(=O)c1c(C)nc2c(c1N)/C(=C/c1cccs1)C(=O)N2c1ccc(OC)cc1 | 12.4
* Cc1cccc(C)c1Nc1nnc(-c2ccc(F)cc2)o1 | 104
* Nc1ccc(C(=O)Nc2cccc(C(=O)Nc3ccc4c(O)c(N=Nc5ccc(N=Nc6ccc(S(=O)(=O)O)cc6)cc5)c(S(=O)(=O)O)cc4c3)c2)cc1 | 107
* CCOC(=O)c1sc(/N=C2\NC(=O)/C(=C/c3ccc(N4CCN(C)CC4)cc3)S2)nc1C | 106
* Cc1ccc2nc3nc4ccc[nH]c4cc3c2c1 | 92.5
* O=C(/C(=C/c1ccc([N+](=O)[O-])cc1)SCc1ccc(F)cc1)c1ccc(Cl)cc1 | 0.994
* OCCNc1nc(NCCO)nc(Nc2ccc(C3=NN(c4ccc(Cl)cc4)C(c4ccc(Cl)cc4)C3)cc2)n1 (centres undefined) | 43
* c1ccc(-c2n(Cc3ccc4ccccc4n3)cc[n+]2Cc2ccc3ccccc3n2)cc1 | 14.7
* O=C(O)c1ccc(-n2cc(/C=N/Nc3ccc(Cl)cc3Cl)c(-c3ccccc3)n2)cc1 | 90.5

----------
Test system: SNB-19 CNS
ASSAY NOTES: NCI-60 one-dose screen, 48 h (100 = growth as untreated, 0 = no growth, -100 = all killed)
TEST SETTINGS: 10 µM unless noted
About 83,000 compounds went through this panel and 20% of them were active in at least one assay; those are over-represented in the sample as a whole. Active and inactive are the calls of the source. Rule for the calls: active = growth percent below 10; inactive = the rest.
As shown below, each of these molecules has a reported growth value.
MEASUREMENT LABEL: growth

• O=c1cc(/C=N\Nc2nc(-c3ccc(Cl)cc3Cl)cs2)c2cc(Cl)ccc2o1 = 106% (inactive)
• C#C[C@@]1(O)[C@@H](CO)O[C@@H](n2cnc3c(-c4ccccc4)ncnc32)[C@@H]1O = 112% (inactive)
• COc1ccc2c(c1)/C(=C1\S/C(=N/c3nnc(C)s3)NC1=O)C(=O)N2Cc1ccc(Cl)cc1 = 35.7% (inactive)
• O=C1NC(c2ccc(F)cc2)N=C2C(c3ccccc3)=NOC12 (stereo not drawn) = 103% (inactive)
• OCCNc1nc(NCCO)nc(Nc2ccc(C3=NN(c4cc(Cl)cc(Cl)c4)C(c4ccc(C(F)(F)F)cc4)C3)cc2)n1 (stereo not drawn) = 44.4% (inactive)
• CC1CCCN(CCCCCOc2ccc3oc4ccc(Cl)cc4c(=O)c3c2)C1 (stereo not drawn) = 86.4% (inactive)
• c1cc(CNC23CC4CC(CC(C4)C2)C3)cc(C[N+](Cc2cccc(CNC34CC5CC(CC(C5)C3)C4)c2)(Cc2cccc(CNC34CC5CC(CC(C5)C3)C4)c2)Cc2cccc(CNC34CC5CC(CC(C5)C3)C4)c2)c1 (stereo not drawn) = 31.2% [42 µM] (inactive)
• COc1cc(C(=O)N2CCN(c3ccccc3OC)CC2)c(NC(=O)c2cnccn2)cc1OCc1ccccc1 = 85.9% (inactive)
